Experiment: Mouse plasma stability
Format: in vitro ADME
Settings: 10 μM in mouse plasma, 37° C.
The entries below are paired with their reported Mouse Plasma Stability % remaining at 120 minutes.
Give just the number in %; leave the unit off.

1. Cc1cnc(-c2cc3c(-c4cc(=O)n(C)cc4Oc4c(C)cccc4C)cn(C)c(=O)c3[nH]2)[nH]1 [Example 1] :: 95

Respond only with Mouse Plasma Stability % remaining at 120 minutes recorded for Cc1cc(-c2cc3c(-c4cc(=O)n(C)cc4Oc4c(C)cccc4C)cn(C)c(=O)c3[nH]2)cc(C)n1 [Example 17]
42

Respond only with Mouse Plasma Stability % remaining at 120 minutes recorded for Cc1cc(F)cc(C)c1Oc1c(-c2cn(C)c(=O)c3[nH]c(C(=O)NC(C)(C)C)cc23)ccn(C)c1=O [Comparative Example B, reference compound]
100

Respond only with Mouse Plasma Stability % remaining at 120 minutes recorded for Cc1cccc(C)c1Oc1cn(C)c(=O)cc1-c1cn(C)c(=O)c2[nH]c(-c3ncc(C(F)(F)F)[nH]3)cc12 [Example 3]
77

Respond only with Mouse Plasma Stability % remaining at 120 minutes recorded for Cc1cccc(C)c1Oc1cn(C)c(=O)cc1-c1cn(C)c(=O)c2[nH]c(-c3ccccc3F)cc12 [Example 14]
99

Respond only with Mouse Plasma Stability % remaining at 120 minutes recorded for CCNC(=O)c1cc2c(-c3ccn(C)c(=O)c3Oc3c(C)cc(F)cc3C)cn(C)c(=O)c2[nH]1 [Comparative Example A, reference compound]
7

* * *

The entries below are paired with their reported Cmax.
Test: Balb/c mouse pharmacokinetics after oral (PO) dosing
Type: in vivo
Details: male, plasma, 5 mg/kg, Casette
Phrase the answer as number then unit, nothing more needed.

Respond only with Cmax recorded for "Cc1cccc(C)c1Oc1cn(C)c(=O)cc1-c1cn(C)c(=O)c2[nH]c(-c3ccc(=O)n(C)c3)cc12"
24.4 ng/mL

Respond only with Cmax recorded for "Cc1cc(-c2cc3c(-c4cc(=O)n(C)cc4-c4ccccc4)cn(C)c(=O)c3[nH]2)n(C)n1"
631 ng/mL

Respond only with Cmax recorded for "Cn1cc(-c2ccccc2)c(-c2cn(C)c(=O)c3[nH]c(-c4ccccc4)cc23)cc1=O"
1590 ng/mL

Respond only with Cmax recorded for "Cc1cccc(C)c1Oc1cn(C)c(=O)cc1-c1cn(C)c(=O)c2[nH]c(-c3cccc(F)c3F)cc12"
293 ng/mL

Respond only with Cmax recorded for "Cc1cc(-c2cc3c(-c4cc(=O)n(C)cc4-c4ccccc4)cn(C)c(=O)c3[nH]2)cc(C)n1"
1290 ng/mL

Respond only with Cmax recorded for "CC(C)n1cc(-c2cc3c(-c4cc(=O)n(C)cc4-c4ccccc4)cn(C)c(=O)c3[nH]2)cn1"
622 ng/mL

Respond only with Cmax recorded for "Cc1cccc(C)c1Oc1cn(C)c(=O)cc1-c1cn(C)c(=O)c2[nH]c(-c3ccc(F)cc3F)cc12"
718 ng/mL

Respond only with Cmax recorded for "Cc1cccc(C)c1Oc1cn(C)c(=O)cc1-c1cn(C)c(=O)c2[nH]c(-c3cn(C(C)C)nc3C#N)cc12"
19.3 ng/mL

* * *

Target: BRD4 BD2 (Homo sapiens, UniProt O60885)
Construct: HEK293 cells were transfected using NanoLuc-BRD4-BD1 or NanoLuc-BRD4-BD2 fusion vectors
Test: NanoBRET bromodomain assay, BRD4 BD2
Details: NanoBRET, HEK293 cells transfected with NanoLuc-BRD4-BD2
test-readout: IC50

1) Cc1cccc(C)c1Oc1cn(C)c(=O)cc1-c1cn(C)c(=O)c2[nH]c(-c3cccc(F)c3F)cc12 [Example 50] :: ≤ 50 nM
2) CC#Cc1cn(C)c(=O)cc1-c1cn(C)c(=O)c2[nH]c(-c3cc(C)nc(C)c3)cc12 [Example 58] :: ≤ 50 nM
3) Cc1cccc(C)c1Oc1cn(C)c(=O)cc1-c1cn(C)c(=O)c2[nH]c(-c3ccc(C(F)(F)F)cc3)cc12 [Example 28] :: 50 to 200 nM
4) Cc1cnc(-c2cc3c(-c4cc(=O)n(C)cc4Oc4c(C)cccc4C)cn(C)c(=O)c3[nH]2)[nH]1 [Example 1] :: ≤ 50 nM

Respond only with IC50 recorded for Cc1cccc(C)c1Oc1cn(C)c(=O)cc1-c1cn(C)c(=O)c2[nH]c(-c3ccc(C(=O)O)cc3)cc12 [Example 35]
> 1000 nM

Respond only with IC50 recorded for Cc1cccc(C)c1Oc1cn(C)c(=O)cc1-c1cn(C)c(=O)c2[nH]c(-c3cc(C(F)(F)F)ccc3F)cc12 [Example 34]
≤ 50 nM

Respond only with IC50 recorded for Cc1cccc(C)c1Oc1cn(C2CNC2)c(=O)cc1-c1cn(C)c(=O)c2[nH]c(-c3cn(C(C)C)nc3C)cc12 [Example 42]
50 to 200 nM

* * *

Test: Balb/c mouse pharmacokinetics after oral (PO) dosing
Type: in vivo
Conditions: male, plasma, 5 mg/kg, Casette
Label scheme for bioavailability: lower than 60% is n, 60% and above is y.

1) Cc1cccc(C)c1Oc1cn(C)c(=O)cc1-c1cn(C)c(=O)c2[nH]c(-c3cn(C(C)C)nc3C#N)cc12 :: n

Hello, I need to know if "Cc1cccc(C)c1Oc1cn(C)c(=O)cc1-c1cn(C)c(=O)c2[nH]c(-c3ccc(F)cc3F)cc12" has measured bioavailability not below 60%. Thanks!
y

Hello, I need to know if "CC(C)n1cc(-c2cc3c(-c4cc(=O)n(C)cc4-c4ccccc4)cn(C)c(=O)c3[nH]2)cn1" has measured bioavailability not below 60%. Thanks!
n

* * *

Biological target: BRD4 BD2 (Homo sapiens, UniProt O60885)
Construct: HEK293 cells were transfected using NanoLuc-BRD4-BD1 or NanoLuc-BRD4-BD2 fusion vectors; host or cells: HEK293
Assay: NanoBRET bromodomain assay, BRD4 BD2
Assay type: cell-based
Settings: IC50 BD1/IC50 BD2
test-readout: Fold selectivity BRD4 BD1/BD2

# count of solved cases: 10
1. Cc1cccc(C)c1Oc1cn(C)c(=O)cc1-c1cn(C)c(=O)c2[nH]c(-c3ccc(=O)n(C)c3)cc12 [Example 51] :: xx (Fold >50 and ≤200)
2. Cc1cccc(C)c1Oc1cn(C)c(=O)cc1-c1cn(C)c(=O)c2[nH]c(-c3ccc(C(F)(F)F)cc3)cc12 [Example 28] :: xx (Fold >50 and ≤200)
3. Cc1cccc(C)c1Oc1cn(C)c(=O)cc1-c1cn(C)c(=O)c2[nH]c(-c3ncc[nH]3)cc12 [Example 2] :: xx (Fold >50 and ≤200)
4. Cc1ncc(-c2cc3c(-c4cc(=O)n(C)cc4Oc4c(C)cccc4C)cn(C)c(=O)c3[nH]2)s1 [Example 31] :: xx (Fold >50 and ≤200)
5. Cc1cccc(C)c1Oc1cn(C)c(=O)cc1-c1cn(C)c(=O)c2[nH]c(-c3ccc(C#N)cc3)cc12 [Example 24] :: x (Fold >2 and ≤50)
6. Cc1cc(-c2cc3c(-c4cc(=O)n(C)cc4-c4ccccc4)cn(C)c(=O)c3[nH]2)n(C)n1 [Example 60] :: xxx (Fold >200)
7. Cc1ccc(-c2cc3c(-c4cc(=O)n(C)cc4Oc4c(C)cccc4C)cn(C)c(=O)c3[nH]2)cc1 [Example 23] :: x (Fold >2 and ≤50)
8. Cc1cccc(C)c1Oc1cn(C)c(=O)cc1-c1cn(C)c(=O)c2[nH]c(-c3cnn(CS(C)(=O)=O)c3)cc12 [Example 65] :: x (Fold >2 and ≤50)
9. Cc1ccc(F)cc1-c1cc2c(-c3cc(=O)n(C)cc3Oc3c(C)cccc3C)cn(C)c(=O)c2[nH]1 [Example 18] :: xx (Fold >50 and ≤200)
10. Cc1cccc(C)c1Oc1cn(C)c(=O)cc1-c1cn(C)c(=O)c2[nH]c(C3=NCCN3)cc12 [Example 4] :: x (Fold >2 and ≤50)

Could you now consider this next molecule?
Respond only with Fold selectivity BRD4 BD1/BD2 recorded for Cc1cc(-c2cc3c(-c4cc(=O)n(C)cc4Oc4c(C)cccc4C)cn(C)c(=O)c3[nH]2)ncn1 [Example 38]
xxx (Fold >200)

* * *

Target: BRD4 BD1 (Homo sapiens, UniProt O60885)
Construct: HEK293 cells were transfected using NanoLuc-BRD4-BD1 or NanoLuc-BRD4-BD2 fusion vectors
Experiment: NanoBRET bromodomain assay, BRD4 BD1
Details: HEK293 cells transfected with NanoLuc-BRD4-BD1
test-readout: IC50

1) Cc1cccc(C)c1Oc1cn(C2CNC2)c(=O)cc1-c1cn(C)c(=O)c2[nH]c(-c3cn(C(C)C)nc3C)cc12 :: > 1000 nM

Respond only with IC50 recorded for "Cc1cnc(-c2cc3c(-c4cc(=O)n(C)cc4-c4ccccc4)cn(C)c(=O)c3[nH]2)[nH]1"
> 1000 nM

Respond only with IC50 recorded for "Cc1cccc(C)c1Oc1cn(C)c(=O)cc1-c1cn(C)c(=O)c2[nH]c(-c3cncnc3)cc12"
> 1000 nM
